Assayed System: recombinant human MAPKAP-K2 (Homo sapiens, UniProt P49137)
Sequence (P49137 whole entry): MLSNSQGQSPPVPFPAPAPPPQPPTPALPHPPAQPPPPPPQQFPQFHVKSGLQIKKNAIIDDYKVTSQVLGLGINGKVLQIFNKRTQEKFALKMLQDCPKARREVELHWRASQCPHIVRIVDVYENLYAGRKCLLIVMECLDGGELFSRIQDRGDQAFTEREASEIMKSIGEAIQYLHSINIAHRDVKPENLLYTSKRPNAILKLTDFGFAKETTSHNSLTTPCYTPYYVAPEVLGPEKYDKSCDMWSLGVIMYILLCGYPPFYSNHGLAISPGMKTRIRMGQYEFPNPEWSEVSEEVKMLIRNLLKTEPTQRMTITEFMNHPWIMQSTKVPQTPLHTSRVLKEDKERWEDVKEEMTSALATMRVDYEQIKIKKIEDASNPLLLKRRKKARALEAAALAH
Method Summary: Inhibition of MAPKAP-K2 enzyme activity (33P-ATP peptide substrate phosphorylation)
Applied Conditions: recombinant human MAPKAP-K2 10 mU, room temperature 30 min, peptide substrate Lys-Lys-Leu-Asn-Arg-Thr-Leu-Ser-Val-Ala; read-out: Activity strength (IC50 against MAPKAP-K2)
pIC50: −log10 of the molar value.
pIC50 values for the compounds below.

Compound: CCOc1ccc(Nc2c3c(nc4ccnn24)N(C[C@H]2CCCNC2)C(=O)C3)cc1 [D-002]
pIC50: 4.00 to 4.30

Retrieve pIC50 measured for COC(=O)c1ccc(Nc2c3c(nc4ccnn24)N(C2CCCNC2)CC3)cc1 (stereo not drawn) [A-099] and print it. > 5.00

Retrieve pIC50 measured for CCOc1ccc(Nc2c3c(nc4ccnn24)N([C@H]2CCCC[C@@H]2N)CC3)cc1 [A-004] and print it. 4.00 to 4.30

Retrieve pIC50 measured for CCOc1ccc(Nc2c3c(nc4ccnn24)N(C2CCN(CC)C2)CC3)cc1 (stereo not drawn) [A-012] and print it. 4.30 to 5.00

Retrieve pIC50 measured for CCOc1ccc(Nc2c3c(nc4ccnn24)N(C2CCCC(N)C2)CC3)cc1 (stereo not drawn) [A-003] and print it. 4.30 to 5.00

Retrieve pIC50 measured for CCOc1ccc(Nc2c3c(nc4ccnn24)N([C@H]2CCCNC2)CC3)cc1 [A-008] and print it. > 5.00

Retrieve pIC50 measured for CCOc1ccc(Nc2c3c(nc4ccnn24)N(CCN(C)C)CCC3)cc1 [B-007] and print it. 4.00 to 4.30

Retrieve pIC50 measured for CCOc1ccc(Nc2c3c(nc4ccnn24)N([C@H]2CCCNC2)CCC3)cc1 [B-001] and print it. > 5.00

Retrieve pIC50 measured for CCOc1ccc(Nc2c3c(nc4ccnn24)N(C2CCCC(N)C2)CCC3)cc1 (stereo not drawn) [B-013] and print it. 4.00 to 4.30

----------
Assayed System: recombinant human MAPKAP-K2 (Homo sapiens)
Method Summary: Inhibition of MAPKAP-K2 enzyme activity (33P-ATP peptide substrate phosphorylation)
Applied Conditions: recombinant human MAPKAP-K2 10 mU, room temperature 30 min, peptide substrate Lys-Lys-Leu-Asn-Arg-Thr-Leu-Ser-Val-Ala; read-out: Activity strength (IC50 against MAPKAP-K2)
Protocol: General Measurement Method for Determining Inhibition of MAPKAP-K2 Enzyme Activity (Preparation of Solutions of Compounds) […] To a DMSO solution (5 μL) containing a test compound at 5%, a solution (25 μL) containing a peptide substrate [peptide substrate […], ATP 20 μmol/L, Tris buffer 60 mmol/L (pH 7.5), EGTA 0.2 mmol/L, β-mercaptoethanol 0.2%, magnesium acetate 20 mmol/L, [γ-33P]ATP 0.1 μCi (specific radioactivity ca. 110 TBq/mmol)] was added. […]
IC50 values for the molecules below.

Molecule: CCOc1ccc(Nc2c3c(nc4ccnn24)N(O)CC3)cc1
IC50: < 10 µM

Retrieve IC50 measured for CCOc1ccc(Nc2c3c(nc4ccnn24)N(CC2CCCNC2)CC3)cc1 (stereo not drawn) and print it. 50 to 100 µM

Retrieve IC50 measured for CCOc1ccc(Nc2c3c(nc4ccnn24)N(CCN)C(=O)C3)cc1 and print it. 50 to 100 µM

Retrieve IC50 measured for CCOc1ccc(Nc2c3c(nc4ccnn24)N(CCN)CC3)cc1 and print it. < 10 µM

Retrieve IC50 measured for CCOc1ccc(Nc2c3c(nc4ccnn24)N([C@H]2CCCNC2)C(=O)C3)cc1 and print it. 10 to 50 µM

Retrieve IC50 measured for c1ccc(Nc2c3c(nc4ccnn24)N([C@H]2CCCNC2)CC3)cc1 and print it. < 10 µM

Retrieve IC50 measured for COCCOc1ccc(Nc2c3c(nc4ccnn24)N([C@H]2CCCNC2)CC3)cc1 and print it. < 10 µM

Retrieve IC50 measured for CCOc1ccc(Nc2c3c(nc4ccnn24)N([C@@H]2CCCC[C@@H]2N)CCC3)cc1 and print it. 10 to 50 µM

Retrieve IC50 measured for CCOc1ccc(Nc2c3c(nc4ccnn24)N(C2CCN(Cc4ccccc4)C2)CC3)cc1 (stereo not drawn) and print it. 10 to 50 µM

Retrieve IC50 measured for CCOc1ccc(Nc2c3c(nc4c(F)c(F)nn24)N([C@H]2CCCNC2)CC3)cc1 and print it. 10 to 50 µM

Retrieve IC50 measured for CCOc1ccc(Nc2c3c(nc4ccnn24)N([C@H]2CC[C@H](N)CC2)C(=O)C3)cc1 and print it. 10 to 50 µM

Retrieve IC50 measured for c1ccc(CNc2c3c(nc4ccnn24)N([C@H]2CCCNC2)CC3)cc1 and print it. < 10 µM

This collection of values is drawn from patent US7473694B2.
